Tested on: human breast adenocarcinoma cells of MCF-7 line
Test: MTT cell viability assay, MCF-7
Type: cell-based
Conditions: Homo sapiens, MCF7, 72 h
READOUT: pIC50
Conceptually, pIC50 converts a concentration in mol/L into minus its log10.

The compound identified as O=C1C2=C(C(=O)c3ccccc31)C(C=Cc1ccccc1)c1sc(=O)[nH]c1S2 (stereo not drawn) registered its pIC50 at 5.04

O=C1C2=C(C(=O)c3ccccc31)C(CCc1ccccc1)c1sc(=O)[nH]c1S2 (stereo not drawn) has a reported pIC50 of 5.05

Field pIC50 (entry O=C1C2=C(C(=O)c3ccccc31)C(C=Cc1ccccc1[N+](=O)[O-])c1sc(=O)[nH]c1S2 (stereo not drawn) ) reads 5.07
